- MEASURED ON: MATE1 (Homo sapiens, UniProt Q96FL8)
- Sequence (Q96FL8 whole entry): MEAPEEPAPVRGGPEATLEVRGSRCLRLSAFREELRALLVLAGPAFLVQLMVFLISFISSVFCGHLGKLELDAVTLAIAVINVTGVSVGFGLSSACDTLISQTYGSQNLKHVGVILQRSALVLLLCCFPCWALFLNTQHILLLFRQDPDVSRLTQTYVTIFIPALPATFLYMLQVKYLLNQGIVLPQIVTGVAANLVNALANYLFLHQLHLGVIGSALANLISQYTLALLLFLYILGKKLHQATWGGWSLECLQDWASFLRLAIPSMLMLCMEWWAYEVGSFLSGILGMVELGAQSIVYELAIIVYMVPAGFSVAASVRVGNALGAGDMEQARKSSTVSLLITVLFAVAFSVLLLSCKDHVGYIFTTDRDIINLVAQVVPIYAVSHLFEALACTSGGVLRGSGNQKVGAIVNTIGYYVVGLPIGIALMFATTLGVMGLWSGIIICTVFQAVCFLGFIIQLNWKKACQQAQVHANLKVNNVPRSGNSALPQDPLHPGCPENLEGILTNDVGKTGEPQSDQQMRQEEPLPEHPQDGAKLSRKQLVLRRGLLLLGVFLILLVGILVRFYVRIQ
MEASUREMENT LABEL: pIC50
Please note pIC50 is a logarithmic value: minus log10 of concentration in mol/L. Answer with that number alone.

So for `CCN1C(=O)N(c2c(F)c(OC)cc(OC)c2F)Cc2cnc3[nH]c(CN4CCOCC4)cc3c21` , the logged pIC50 turned out to be 5.96

----------
- ASSAY PROCEDURE: Solubility‐pH profile in buffers at 37°C
- Type: physicochemical
- EXPERIMENTAL SETUP: buffer, 37 °C, pH 6.5, aqueous buffer, Solubility, pH 6.5 buffer
MEASUREMENT LABEL: solubility

So for CCN1C(=O)N(c2c(F)c(OC)cc(OC)c2F)Cc2cnc3[nH]c(CN4CCOCC4)cc3c21 [pemigatinib, Pemigatinib] , the logged solubility turned out to be < 1 µg/mL

----------
- ASSAY PROCEDURE: Blood/plasma ratio
- Format: in vitro ADME
- EXPERIMENTAL SETUP: blood and plasma
MEASUREMENT LABEL: blood plasma ratio
I only need the number, thanks.

So for `CCN1C(=O)N(c2c(F)c(OC)cc(OC)c2F)Cc2cnc3[nH]c(CN4CCOCC4)cc3c21` , the logged blood plasma ratio turned out to be 0.96

----------
- ASSAY PROCEDURE: pKa determination
- Type: physicochemical
- EXPERIMENTAL SETUP: pKa, second printed pKa of the diprotic base
MEASUREMENT LABEL: pKa
I only need the number, thanks.

So for `CCN1C(=O)N(c2c(F)c(OC)cc(OC)c2F)Cc2cnc3[nH]c(CN4CCOCC4)cc3c21` , the logged pKa turned out to be 3.1

----------
- ASSAY PROCEDURE: logP determination
- Format: physicochemical
MEASUREMENT LABEL: logP
I only need the number, thanks.

So for `CCN1C(=O)N(c2c(F)c(OC)cc(OC)c2F)Cc2cnc3[nH]c(CN4CCOCC4)cc3c21` , the logged logP turned out to be 2.2

----------
- ASSAY PROCEDURE: Human mass balance / ADME study in healthy participants
- Assay type: in vivo
- EXPERIMENTAL SETUP: human, urine, oral
MEASUREMENT LABEL: CL renal

So for CCN1C(=O)N(c2c(F)c(OC)cc(OC)c2F)Cc2cnc3[nH]c(CN4CCOCC4)cc3c21 [pemigatinib, Pemigatinib] , the logged CL renal turned out to be ~3.33 mL/min

----------
- ASSAY PROCEDURE: pKa determination
- Assay type: physicochemical
- EXPERIMENTAL SETUP: pKa, first printed pKa of the diprotic base
MEASUREMENT LABEL: pKa
I only need the number, thanks.

So for CCN1C(=O)N(c2c(F)c(OC)cc(OC)c2F)Cc2cnc3[nH]c(CN4CCOCC4)cc3c21 [pemigatinib, Pemigatinib] , the logged pKa turned out to be 5.7

----------
- ASSAY PROCEDURE: Solubility‐pH profile in buffers at 37°C
- Type: physicochemical
- EXPERIMENTAL SETUP: buffer, 37 °C, pH 1.2, aqueous buffer, Solubility, pH 1.2 buffer
MEASUREMENT LABEL: solubility

So for `CCN1C(=O)N(c2c(F)c(OC)cc(OC)c2F)Cc2cnc3[nH]c(CN4CCOCC4)cc3c21` , the logged solubility turned out to be ~710 µg/mL
